Listing: inhibition of selected compounds
tgt: UniProt:P11387
Sequence (P11387 whole entry): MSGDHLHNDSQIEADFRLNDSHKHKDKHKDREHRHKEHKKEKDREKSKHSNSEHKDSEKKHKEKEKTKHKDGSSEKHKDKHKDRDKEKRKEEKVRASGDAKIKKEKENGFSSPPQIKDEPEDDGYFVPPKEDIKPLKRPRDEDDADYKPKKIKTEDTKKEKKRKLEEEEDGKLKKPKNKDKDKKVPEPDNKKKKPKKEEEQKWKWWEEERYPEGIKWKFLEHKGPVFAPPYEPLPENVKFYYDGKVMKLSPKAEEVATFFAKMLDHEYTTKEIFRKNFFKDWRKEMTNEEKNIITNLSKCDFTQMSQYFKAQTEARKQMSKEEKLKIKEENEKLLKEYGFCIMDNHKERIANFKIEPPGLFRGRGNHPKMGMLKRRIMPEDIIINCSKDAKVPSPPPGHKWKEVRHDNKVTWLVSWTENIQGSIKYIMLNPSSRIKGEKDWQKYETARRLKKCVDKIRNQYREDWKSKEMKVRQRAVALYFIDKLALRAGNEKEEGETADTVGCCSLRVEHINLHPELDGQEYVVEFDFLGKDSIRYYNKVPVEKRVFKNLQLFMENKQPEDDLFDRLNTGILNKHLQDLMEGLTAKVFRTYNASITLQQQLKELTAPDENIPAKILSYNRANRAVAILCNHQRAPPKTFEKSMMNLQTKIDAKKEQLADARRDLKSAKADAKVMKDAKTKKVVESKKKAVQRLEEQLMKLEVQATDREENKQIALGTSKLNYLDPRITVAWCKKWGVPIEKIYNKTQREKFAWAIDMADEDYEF
assayMethodText: Inhibition of human recombinant topoisomerase-1 assessed as decrease in relaxation of supercoiled DNA pBR322 at 100 uM after 30 mins by ethidium bromide staining-based agarose gel electrophoresis relative to control
Answer in %, number only, no unit symbol.

Known results for compounds:
molSmiles | inhibition / %
O=C(C[C@H](NC(=O)OCc1ccccc1)C(=O)N[C@H](COC(=O)c1ccc(Cl)cc1)Cc1ccccc1)OCc1ccccc1 | 9.5
Cc1ccccc1C(=O)OC[C@H](Cc1ccccc1)NC(=O)[C@H](CC(=O)OCc1ccccc1)NC(=O)OCc1ccccc1 | -0
CCC(=O)OC[C@H](Cc1ccccc1)NC(=O)[C@H](CC(=O)OCc1ccccc1)NC(=O)OCc1ccccc1 | 45.2

State its inhibition for this compound: COc1ccc(C(=O)OC[C@H](Cc2ccccc2)NC(=O)[C@H](CC(=O)OCc2ccccc2)NC(=O)OCc2ccccc2)cc1OC
20.2

Output inhibition of CCC(=O)OC[C@H](Cc1ccccc1)NC(=O)[C@H](Cc1ccccc1)NC(=O)OCc1ccccc1
-0

Determine from records and report inhibition for O=C(N[C@@H](Cc1ccccc1)C(=O)N[C@H](COC(=O)c1ccccc1Cl)Cc1ccccc1)OCc1ccccc1
-0

In one line, give reported inhibition of the entry O=C(C[C@H](NC(=O)OCc1ccccc1)C(=O)N[C@H](COC(=O)c1ccccc1)Cc1ccccc1)OCc1ccccc1 .
-0

Answer with reported inhibition of O=C(N[C@@H](Cc1ccccc1)C(=O)N[C@H](COC(=O)c1ccc(Cl)cc1)Cc1ccccc1)OCc1ccccc1
-0

====

Reported inhibition by item:
tgt: DNA topoisomerase 2-alpha (Homo sapiens, UniProt P11388)
Sequence (P11388 whole entry): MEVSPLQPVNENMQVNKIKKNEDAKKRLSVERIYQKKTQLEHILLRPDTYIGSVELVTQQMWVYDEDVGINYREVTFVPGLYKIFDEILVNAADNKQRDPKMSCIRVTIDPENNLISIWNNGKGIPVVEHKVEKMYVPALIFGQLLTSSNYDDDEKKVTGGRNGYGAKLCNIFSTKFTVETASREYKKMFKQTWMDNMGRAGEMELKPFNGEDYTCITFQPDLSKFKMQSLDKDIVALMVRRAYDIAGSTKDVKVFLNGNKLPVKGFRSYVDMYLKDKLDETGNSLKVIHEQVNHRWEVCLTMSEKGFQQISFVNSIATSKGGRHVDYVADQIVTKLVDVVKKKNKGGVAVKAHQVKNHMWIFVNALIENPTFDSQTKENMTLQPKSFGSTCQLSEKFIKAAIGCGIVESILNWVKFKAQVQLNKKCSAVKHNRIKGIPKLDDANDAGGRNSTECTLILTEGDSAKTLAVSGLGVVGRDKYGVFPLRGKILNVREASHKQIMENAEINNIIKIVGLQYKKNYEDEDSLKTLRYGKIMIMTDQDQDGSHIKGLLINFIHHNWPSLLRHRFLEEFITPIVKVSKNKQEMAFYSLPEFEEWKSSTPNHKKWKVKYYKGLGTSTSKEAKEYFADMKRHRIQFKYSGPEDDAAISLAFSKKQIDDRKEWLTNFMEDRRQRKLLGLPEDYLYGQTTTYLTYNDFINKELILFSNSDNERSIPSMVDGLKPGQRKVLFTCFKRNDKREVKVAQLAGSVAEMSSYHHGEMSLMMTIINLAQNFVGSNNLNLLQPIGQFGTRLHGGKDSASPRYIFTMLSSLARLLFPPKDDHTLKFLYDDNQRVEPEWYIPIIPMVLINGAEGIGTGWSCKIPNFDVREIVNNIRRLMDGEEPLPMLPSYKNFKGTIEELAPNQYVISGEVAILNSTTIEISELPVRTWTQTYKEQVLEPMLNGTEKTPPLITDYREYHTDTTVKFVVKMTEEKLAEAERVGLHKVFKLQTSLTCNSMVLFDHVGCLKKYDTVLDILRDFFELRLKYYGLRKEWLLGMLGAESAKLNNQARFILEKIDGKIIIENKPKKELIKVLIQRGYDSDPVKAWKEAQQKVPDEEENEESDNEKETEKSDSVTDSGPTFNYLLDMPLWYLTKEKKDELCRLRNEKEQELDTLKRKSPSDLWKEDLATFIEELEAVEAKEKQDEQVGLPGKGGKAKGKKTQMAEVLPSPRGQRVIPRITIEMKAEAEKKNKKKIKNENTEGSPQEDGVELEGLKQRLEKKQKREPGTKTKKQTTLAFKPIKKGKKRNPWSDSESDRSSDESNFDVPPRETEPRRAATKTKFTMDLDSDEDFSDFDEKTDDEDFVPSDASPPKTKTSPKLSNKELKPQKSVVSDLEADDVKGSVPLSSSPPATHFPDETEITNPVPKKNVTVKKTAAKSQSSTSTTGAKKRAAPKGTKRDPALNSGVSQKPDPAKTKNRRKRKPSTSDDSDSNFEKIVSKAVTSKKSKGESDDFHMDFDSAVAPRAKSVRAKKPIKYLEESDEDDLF
assayMethodText: Inhibition of human recombinant topoisomerase-2alpha expressed in Escherichia coli assessed as decrease in relaxation of supercoiled DNA pBR322 at 20 uM after 30 mins by ethidium bromide staining-based agarose gel electrophoresis relative to control
All answers are understood in %, so give the number only.

molSmiles | inhibition, %
O=C(C[C@H](NC(=O)OCc1ccccc1)C(=O)N[C@H](COC(=O)c1ccccc1)Cc1ccccc1)OCc1ccccc1 | 20.1
CCC(=O)OC[C@H](Cc1ccccc1)NC(=O)[C@H](Cc1ccccc1)NC(=O)OCc1ccccc1 | 45.6
COc1ccc(C(=O)OC[C@H](Cc2ccccc2)NC(=O)[C@H](CC(=O)OCc2ccccc2)NC(=O)OCc2ccccc2)cc1OC | 49.8
Cc1ccccc1C(=O)OC[C@H](Cc1ccccc1)NC(=O)[C@H](Cc1ccccc1)NC(=O)OCc1ccccc1 | 42.1
O=C(N[C@@H](Cc1ccccc1)C(=O)N[C@H](COC(=O)c1ccccc1)Cc1ccccc1)OCc1ccccc1 | 25.6
CCC(=O)OC[C@H](Cc1ccccc1)NC(=O)[C@H](CC(=O)OCc1ccccc1)NC(=O)OCc1ccccc1 | 19.7

Please give measured inhibition of the following entry: O=C(C[C@H](NC(=O)OCc1ccccc1)C(=O)N[C@H](COC(=O)c1ccc(Cl)cc1)Cc1ccccc1)OCc1ccccc1
51.2

Given COc1ccc(C(=O)OC[C@H](Cc2ccccc2)NC(=O)[C@H](Cc2ccccc2)NC(=O)OCc2ccccc2)cc1OC , respond with its inhibition.
28.1

====

Tested on: A549
assayMethodText: Antiproliferative activity against human A549 cells after 48 hrs by MTT assay
Assay type: functional, cell-based
experimentalConditions: A549, 48 h
Below, each entry is listed with its recorded IC50.

Use the examples below as a reference point.
compound | tgt | IC50
CC[C@@]1(O)C(=O)OCc2c1cc1n(c2=O)Cc2cc3ccccc3nc2-1 [CAMPTOTHECIN] | A549 | 13.6 µM
O=C(N[C@@H](Cc1ccccc1)C(=O)N[C@H](COC(=O)c1ccccc1)Cc1ccccc1)OCc1ccccc1 | A549 | 48.8 µM
Cc1ccccc1C(=O)OC[C@H](Cc1ccccc1)NC(=O)[C@H](CC(=O)OCc1ccccc1)NC(=O)OCc1ccccc1 | A549 | > 50 µM
CCC(=O)OC[C@H](Cc1ccccc1)NC(=O)[C@H](Cc1ccccc1)NC(=O)OCc1ccccc1 | A549 | > 50 µM
Cc1ccccc1C(=O)OC[C@H](Cc1ccccc1)NC(=O)[C@H](Cc1ccccc1)NC(=O)OCc1ccccc1 | A549 | > 50 µM

Provide only the value of recorded IC50 for CCC(=O)OC[C@H](Cc1ccccc1)NC(=O)[C@H](CC(=O)OCc1ccccc1)NC(=O)OCc1ccccc1
> 50 µM

Please indicate IC50 recorded for O=C(N[C@@H](Cc1ccccc1)C(=O)N[C@H](COC(=O)c1ccc(Cl)cc1)Cc1ccccc1)OCc1ccccc1
42.4 µM

Assign IC50 to the following record: O=C(C[C@H](NC(=O)OCc1ccccc1)C(=O)N[C@H](COC(=O)c1ccccc1Cl)Cc1ccccc1)OCc1ccccc1
> 50 µM
